B1: HEEH_KT_rd6_0790 (parent)
chain: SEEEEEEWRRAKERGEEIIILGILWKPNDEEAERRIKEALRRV

Variants of: B1
Procedure Summary: folding stability dG (cDNA display proteolysis); higher = more stable
Conditions: PBS, room temperature
# Lookup of reported folding stability dG keyed by entry
The response must be a number in kcal/mol with no trailing unit.

These recorded examples may help you get a feel for the data.
The variant listed as SEEEEEEWRRAKERGETIIILGILWKPNDEEAERRIKEALRRV [E17T] shows folding stability dG equal to 2.16

The variant listed as SEEEEEEWRRAKERGEEIIILGILWKHNDEEAERRIKEALRRV [P27H] shows folding stability dG equal to 0.914

The variant listed as SEEEEEEWRRAKERGEEIIILGILWKPNYEEAERRIKEALRRV [D29Y] shows folding stability dG equal to 1.24

The variant listed as SEEEEEEWRRAKERVEEIIILGILWKPNDEEAERRIKEALRRV [G15V] shows folding stability dG equal to 1.32

Let's switch to this variant now.
The variant listed as EEEEEEEWRRAKERGEEIIILGILWKPNDEEAERRIKEALRRV [S1E] shows folding stability dG equal to 2.23
